Known pIC50 of a selection of compounds
- Tested on: XCL-1 hiPSC CRBN Mock
- ASSAY DETAILS: cells
- Format: cell-based
- CONDITION DETAILS: Homo sapiens, 72 h; XCL-1 CRBN Mock; 3 d differentiation; read-out: IC50 (±SEM) in SOX17 differentiation assay
pIC50 field: float, defined as -log10 of concentration (mol/L).

[
  {
    "COMPOUND": "Nc1cccc2c1C(=O)N(C1CCC(=O)NC1=O)C2=O (centres unmarked) [Pomalidomide, pomalidomide]",
    "PROPERTY": "pIC50",
    "EXPERIMENTAL VALUE": 7.70
  }
]

--- query ---
Exercise: Can you look up the measured pIC50 of O=C1CCC(N2C(=O)c3ccccc3C2=O)C(=O)N1 (centres unmarked) [Thalidomide, thalidomide] for me?
Key: 5.72

* * *

Known IC50 of a selection of compounds
- Tested on: Gibco hiPSCs
- ASSAY DETAILS: LPM differentiation assay (FOXF1 high content imaging), Gibco hiPSCs
- CONDITION DETAILS: Homo sapiens, 48 h, read-out: IC50 (±SEM) in LPM differentiation assay
// note: answer is a bare numeric in nM

[
  {
    "COMPOUND": "Nc1cccc2c1CN(C1CCC(=O)NC1=O)C2=O (centres unmarked) [Lenalidomide, lenalidomide]",
    "IC50 / nM": 160
  },
  {
    "COMPOUND": "CC1=C(/C=C/C(C)=C/C=C/C(C)=C/C(=O)O)C(C)(C)CCC1 [atRA, all-trans retinoic acid]",
    "IC50 / nM": 820
  },
  {
    "COMPOUND": "NC(=O)c1ccc(-c2nc(-c3ccc4c(c3)OCO4)c(-c3ccccn3)[nH]2)cc1 [SB431542]",
    "IC50 / nM": 2760
  },
  {
    "COMPOUND": "O=C1CCC(N2C(=O)c3ccccc3C2=O)C(=O)N1 (centres unmarked) [Thalidomide, thalidomide]",
    "IC50 / nM": 310
  }
]

Exercise: Can you look up the measured IC50 of Nc1cccc2c1C(=O)N(C1CCC(=O)NC1=O)C2=O (centres unmarked) [Pomalidomide, pomalidomide] for me?
Key: 10

* * *

Known pIC50 of a selection of molecules
- System: XCL-1 hiPSC CRBN Mock
- ASSAY DETAILS: LPM differentiation assay (FOXF1 high content imaging), XCL-1 CRBN Mock clone
- Assay type: cell-based
- CONDITION DETAILS: Homo sapiens, 48 h, % FOXF1+ cells after 2 d in APEL2+GSKi, read-out: IC50 (±SEM) in LPM differentiation assay
pIC50 field: float, defined as -log10 of concentration (mol/L).

Worked cases, pIC50 given:
[
  {
    "MOLECULE": "CC1=C(/C=C/C(C)=C/C=C/C(C)=C/C(=O)O)C(C)(C)CCC1 [atRA, all-trans retinoic acid]",
    "pIC50": 5.57
  },
  {
    "MOLECULE": "NC(=O)c1ccc(-c2nc(-c3ccc4c(c3)OCO4)c(-c3ccccn3)[nH]2)cc1 [SB431542]",
    "pIC50": 6.19
  },
  {
    "MOLECULE": "Nc1cccc2c1C(=O)N(C1CCC(=O)NC1=O)C2=O (stereo not shown) [Pomalidomide, pomalidomide]",
    "pIC50": 7.70
  }
]

--- query ---
Exercise: Can you look up the measured pIC50 of O=C1CCC(N2C(=O)c3ccccc3C2=O)C(=O)N1 (stereo not shown) [Thalidomide, thalidomide] for me?
Key: 6.25
